Ref: the supplement of paper PMC10307832

Item-by-item account of relative viability
tested on: SW 900; assay: relative viability (nuclei count vs DMSO), 5 days (fraction); higher = more cells survive; details: first compound 0.1 µM
Recorded endpoint: relative viability

CCN(CC)CCCCNc1ncc2cc(-c3cc(OC)cc(OC)c3)c(NC(=O)NC(C)(C)C)nc2n1 + Nc1ncn([C@H]2C[C@H](O)[C@@H](CO)O2)c(=O)n1 [Decitabine] (partner 2 µM)	0.459
O=c1cc(N2CCOCC2)oc2c(-c3cccc4c3sc3ccccc34)cccc12 + Nc1nc2[nH]cc(CCc3ccc(C(=O)N[C@@H](CCC(=O)O)C(=O)O)cc3)c2c(=O)[nH]1 [Pemetrexed] (partner 0.2 µM)	0.425
O=c1cc(N2CCOCC2)oc2c(-c3cccc4c3sc3ccccc34)cccc12 + Nc1ncn([C@H]2C[C@H](O)[C@@H](CO)O2)c(=O)n1 [Decitabine] (partner 2 µM)	0.471
